- measurement.protocol: Thermodynamic solubility of the compound in thermosol at pH 9
- Type: physicochemical
- condition.set: buffer, read-out: Therm_solubility
readout.label: solubility thermodynamic (µg/mL)
Enter your answer as a number in µg/mL; do not include the unit.

chemical_structure=C[C@@](CCc1ccc(-c2ccccc2)cc1)(C(=O)NO)S(C)(=O)=O readout_label="solubility thermodynamic" endpoint_value=260

For the next question, use this compound.
Exercise: solubility thermodynamic lookup needed for `C[C@@](CCn1ccc(-c2ccc(-n3nccn3)cc2)cc1=O)(C(=O)NO)S(C)(=O)=O` , thanks.
Solution: 2740

====

- measurement.target: UDP-3-O-acyl-N-acetylglucosamine deacetylase (Pseudomonas aeruginosa (strain ATCC 15692 / PAO1 / 1C / PRS 101 / LMG12228), UniProt P47205)
- Sequence (P47205 whole entry): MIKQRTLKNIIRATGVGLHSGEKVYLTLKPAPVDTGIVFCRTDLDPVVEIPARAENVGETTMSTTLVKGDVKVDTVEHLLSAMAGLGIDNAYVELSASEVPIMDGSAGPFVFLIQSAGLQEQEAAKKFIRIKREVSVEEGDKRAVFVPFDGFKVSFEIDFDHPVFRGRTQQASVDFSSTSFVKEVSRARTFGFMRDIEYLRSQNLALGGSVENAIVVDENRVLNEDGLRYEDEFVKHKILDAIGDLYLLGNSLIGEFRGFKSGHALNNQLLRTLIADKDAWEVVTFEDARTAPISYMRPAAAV
- measurement.protocol: Inhibition of Pseudomonas aeruginosa LpxC expressed in Escherichia coli using UDP-3-O-N-acetylglucosamine substrate measured after 30 mins by mass spectrometry
readout.label: pIC50
Please keep in mind that pIC50 is minus log10 of the molar concentration; only the number is needed.

Guide cases for pIC50, answers given:
compound=C[C@@](CCn1ccc(-c2ccc(-c3ccccn3)cc2)cc1=O)(C(=O)NO)S(C)(=O)=O endpoint_value=8.89
compound=Cc1c(-c2ccccc2)ccn(CC[C@](C)(C(=O)NO)S(C)(=O)=O)c1=O endpoint_value=8.17
compound=C[C@@](CCn1ccc(-c2ccc(-c3nccs3)cc2)cc1=O)(C(=O)NO)S(C)(=O)=O endpoint_value=8.96
compound=COc1cnc(-c2ccc(-c3ccn(CC[C@](C)(C(=O)NO)S(C)(=O)=O)c(=O)c3)cc2)nc1 endpoint_value=8.92

Exercise: pIC50 lookup needed for CC(CCn1ccc(C2CCCCC2)cc1=O)(C(=O)NO)S(C)(=O)=O (racemic) , thanks.
Solution: 7.96

Exercise: Same read-out for `C[C@@](CCn1ccc(-c2cc(F)cc(F)c2)cc1=O)(C(=O)NO)S(C)(=O)=O` ?
Solution: 8.41

Exercise: Same read-out for `C[C@@](CCn1ccc(C2=CCCCC2)cc1=O)(C(=O)NO)S(C)(=O)=O` ?
Solution: 8.39

Exercise: Same read-out for `COc1cccc(-c2ccn(CC[C@](C)(C(=O)NO)S(C)(=O)=O)c(=O)c2)c1` ?
Solution: 8.43
